Target: UniProtKB P34972
Sequence (P34972 whole entry): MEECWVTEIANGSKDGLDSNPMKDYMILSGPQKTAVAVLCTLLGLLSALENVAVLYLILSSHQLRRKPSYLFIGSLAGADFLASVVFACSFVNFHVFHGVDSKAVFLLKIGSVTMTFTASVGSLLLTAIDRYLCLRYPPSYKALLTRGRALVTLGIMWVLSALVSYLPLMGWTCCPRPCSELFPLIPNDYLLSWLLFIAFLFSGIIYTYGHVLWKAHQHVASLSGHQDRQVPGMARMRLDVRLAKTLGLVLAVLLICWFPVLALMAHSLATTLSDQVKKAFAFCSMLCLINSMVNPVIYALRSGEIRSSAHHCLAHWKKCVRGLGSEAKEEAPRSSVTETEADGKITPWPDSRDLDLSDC
Test: Displacement of [3H]WIN-55212-2 from human cannabinoid CB2 receptor expressed in CHO cells
QUANTITY_NAME: IC50 (µM)
Number only, in µM; omit the unit.

COMPOUND_STRING	TEST_SYSTEM	IC50, µM
CCc1c(-c2nnnn2C2CCCC2)nn(-c2ccc(Cl)cc2Cl)c1-c1ccc(Cl)cc1	UniProtKB P34972	0.84
Cc1c(-c2nnnn2C2CCCC2)nn(-c2ccc(Cl)cc2Cl)c1-c1ccc(Br)cc1	UniProtKB P34972	4.24
CCc1c(-c2nnnn2C2CCCC2)nn(-c2ccc(Cl)cc2Cl)c1-c1ccc(Br)cc1	UniProtKB P34972	1.93

Let's switch to this compound now.
Request: Missing value: IC50, UniProtKB P34972, entry Cc1c(-c2nnnn2C2CCCCCC2)nn(-c2ccc(Cl)cc2Cl)c1-c1ccc(Cl)cc1 . Fill in?
Result: 0.818

* * *

Notes on IC50 obtained with Cannabinoid receptor 1 (Rattus norvegicus).
Sequence (P20272 whole entry): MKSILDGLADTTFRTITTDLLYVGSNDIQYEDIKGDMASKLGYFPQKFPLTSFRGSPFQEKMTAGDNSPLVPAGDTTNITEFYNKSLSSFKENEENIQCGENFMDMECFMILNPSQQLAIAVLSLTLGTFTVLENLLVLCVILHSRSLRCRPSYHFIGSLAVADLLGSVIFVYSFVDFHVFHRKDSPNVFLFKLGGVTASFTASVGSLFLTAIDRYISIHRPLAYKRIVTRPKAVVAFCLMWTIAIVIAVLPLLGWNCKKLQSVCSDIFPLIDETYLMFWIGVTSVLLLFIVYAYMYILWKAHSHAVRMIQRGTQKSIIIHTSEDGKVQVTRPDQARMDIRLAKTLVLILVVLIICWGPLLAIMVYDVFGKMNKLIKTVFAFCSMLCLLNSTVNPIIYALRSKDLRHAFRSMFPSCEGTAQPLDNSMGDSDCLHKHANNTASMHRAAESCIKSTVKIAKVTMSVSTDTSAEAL
Number only, in nM; omit the unit.

Solved entries:
COMPOUND_STRING	IC50 (nM)
CCCCCCCCn1nnnc1-c1nn(-c2ccc(Cl)cc2Cl)c(-c2ccc(Cl)cc2)c1C	47.3
CCCCn1nnnc1-c1nn(-c2ccc(Cl)cc2Cl)c(-c2ccc(Cl)cc2)c1C	87.8

Request: # get_value(readout='IC50', item= Cc1c(-c2nnnn2-c2ccccc2)nn(-c2ccc(Cl)cc2Cl)c1-c1ccc(Cl)cc1 )
Result: 33.8

Request: # get_value(readout='IC50', item= CCCCn1nnc(-c2nn(-c3ccc(Cl)cc3Cl)c(-c3ccc(Cl)cc3)c2C)n1 )
Result: 87.7

Request: # get_value(readout='IC50', item= CCCCCCCCn1nnc(-c2nn(-c3ccc(Cl)cc3Cl)c(-c3ccc(Cl)cc3)c2C)n1 )
Result: 50.6

Request: # get_value(readout='IC50', item= Cc1c(-c2nnnn2Cc2ccccc2)nn(-c2ccc(Cl)cc2Cl)c1-c1ccc(Cl)cc1 )
Result: 94.3

Origin of measurements: ChEMBL document CHEMBL1143900
